molecular target: Protein Mdm4 (Homo sapiens) + E3 ubiquitin-protein ligase Mdm2 (Homo sapiens) (UniProt O15151+Q00987); test: inhibitors of human Mdm2-MdmX association, primary screen, cell-based, luminescence, split luciferase, SaOS-2, uHTS (AID 485346); settings: SaOS-2 split-luciferase Mdm2/MdmX complementation, at 8 µM
Sequence (O15151 whole entry, looked up): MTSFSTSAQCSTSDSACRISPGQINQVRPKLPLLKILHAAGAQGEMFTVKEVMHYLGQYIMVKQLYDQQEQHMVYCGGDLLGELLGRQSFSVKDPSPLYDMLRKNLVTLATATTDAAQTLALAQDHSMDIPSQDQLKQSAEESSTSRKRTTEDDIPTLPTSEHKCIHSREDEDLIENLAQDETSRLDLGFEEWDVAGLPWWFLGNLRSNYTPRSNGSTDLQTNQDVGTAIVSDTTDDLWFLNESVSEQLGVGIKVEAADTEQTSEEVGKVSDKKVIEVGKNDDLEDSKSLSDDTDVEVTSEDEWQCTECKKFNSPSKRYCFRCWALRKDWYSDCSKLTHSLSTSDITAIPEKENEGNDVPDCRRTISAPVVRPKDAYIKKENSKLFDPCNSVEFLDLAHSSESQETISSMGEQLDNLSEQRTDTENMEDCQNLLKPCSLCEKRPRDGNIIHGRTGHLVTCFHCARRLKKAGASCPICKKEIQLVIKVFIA
Sequence (Q00987 whole entry, looked up): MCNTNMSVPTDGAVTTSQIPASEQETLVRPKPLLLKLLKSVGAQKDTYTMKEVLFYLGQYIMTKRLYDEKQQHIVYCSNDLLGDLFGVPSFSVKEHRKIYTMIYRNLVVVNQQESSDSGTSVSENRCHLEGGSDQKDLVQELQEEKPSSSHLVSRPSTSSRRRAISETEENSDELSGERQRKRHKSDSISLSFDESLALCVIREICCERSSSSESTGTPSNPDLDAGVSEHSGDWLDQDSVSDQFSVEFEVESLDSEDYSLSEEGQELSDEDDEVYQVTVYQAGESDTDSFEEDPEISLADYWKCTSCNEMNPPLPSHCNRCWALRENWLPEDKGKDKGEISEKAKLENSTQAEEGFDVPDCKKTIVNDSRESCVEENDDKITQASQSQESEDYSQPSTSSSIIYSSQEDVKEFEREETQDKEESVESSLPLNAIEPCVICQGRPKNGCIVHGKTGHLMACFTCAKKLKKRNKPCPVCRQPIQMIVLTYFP
Among all 330,000 compounds or so, about 10,000 (3%) were called active.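 The calls were made as follows: active = inhibition of at least 50% at 8 µM in the primary screen; inactive = the rest.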 This excerpt belongs to a sample that is enriched for actives.
Valid outcomes are listed here; reply with one: Yes = active, No = inactive

>>> df
                                   compound  group_label
0  CC(=N\NC(=O)c1cc(Br)ccc1O)/C(=N/O)C(=O)Nc1ccccc1           No
1  CN(c1ccccc1)S(=O)(=O)c1cc(C(=O)OCC(=O)N2CCN(C(=O)c3ccco3)CC2)ccc1Cl           No
2  CCOC(=O)c1ccc(NC(=O)c2c(NCc3ccccc3)[nH]c(=O)[nH]c2=O)cc1          Yes
3      COC(=O)Cn1nc(-c2ccccc2)c2cc(Cl)ccc21           No

input: What did this assay record as the result for COc1ccc(Cl)cc1C(=O)Nc1ccc(N(C)C(C)=O)cc1 ?
output: No

input: What did this assay record as the result for CN(c1ccccc1)S(=O)(=O)c1ccc(C(=O)N2CCN(c3ccccc3Cl)CC2)cc1 ?
output: No

input: What did this assay record as the result for Cc1ccc(Nc2nc(CSc3nnc(-c4ccncc4)n3-c3ccccc3C)cs2)cc1 ?
output: No

###

biological target: Protein Mdm4 (Homo sapiens) + E3 ubiquitin-protein ligase Mdm2 (Homo sapiens) (UniProt O15151+Q00987); assay: inhibitors of human Mdm2-MdmX association, primary screen, cell-based, luminescence, split luciferase, SaOS-2, uHTS (AID 485346); settings: SaOS-2 split-luciferase Mdm2/MdmX complementation, at 8 µM, stronger effect = higher value
Among all 330,000 compounds or so, about 10,000 (3%) were called active. For the sample, actives were picked, then their nearest neighbours and some compounds at random.
readout label: inhibition (%)
# value in %; strip the unit string

Sample answers from the record:
compound	readout label	reading
CCSc1nc(O)c(C(c2cccc(OC)c2)c2c(O)nc(SCC)[nH]c2=O)c(=O)[nH]1	inhibition	-27.3
Cc1cc(C)cc(NC(=O)C(c2ccccc2)N2CCN(CC(=O)N3CCCC3)CC2)c1 (stereo not given)	inhibition	24
COc1ccc(CNS(=O)(=O)c2ccc(-c3cnc(C4CC4)o3)cc2)cc1	inhibition	15.3
COC(C[C@@H](O)[C@H](C)[C@H](O)COCc1ccccc1)OC	inhibition	26.1
O=C(CC1CCCCC1)NCc1ccc(F)cc1	inhibition	-13.5
CC[C@]1(O)C[C@@H]2CN(CCc3c([nH]c4ccccc34)[C@@](C(=O)OC)(c3cc4c(cc3OC)N(C)[C@H]3[C@@](O)(C(=O)OC)[C@H](OC(C)=O)[C@]5(CC)C=CCN6CC[C@]43[C@@H]65)C2)C1	inhibition	85.9
Cc1cccc(NS(=O)(=O)c2ccc(-c3cnc(C4CC4)o3)cc2)c1	inhibition	65.1
CCc1ccccc1NC(=O)c1ccc2c(c1)CCN2S(C)(=O)=O	inhibition	24.8

Documented inhibition of COc1ccc(CC(=O)NCc2nnc(SCC(=O)Nc3ncc(C)s3)n2C)cc1 : 6.63

Documented inhibition of Cc1ccc(C(=O)NCC(=O)NCc2cc(=O)n(C)c(=O)n2C)cc1 : -0.269

###

target: Protein Mdm4 (Homo sapiens) + E3 ubiquitin-protein ligase Mdm2 (Homo sapiens) (UniProt O15151+Q00987); test: inhibitors of human Mdm2-MdmX association, primary screen, cell-based, luminescence, split luciferase, SaOS-2, uHTS (AID 485346); settings: SaOS-2 split-luciferase Mdm2/MdmX complementation, at 8 µM, stronger effect = higher value
The campaign covered roughly 330,000 compounds. About 10,000 (3%) were called active. The sample holds actives, similar compounds and a random draw of the others, so the mix is not that of the screen.
Here, each record is paired with measured inhibition data.
# value in %; strip the unit string

                                     smiles  reading
0  COc1ccc(C)cc1NC(=O)CSc1nnc2ccc(-c3ccccn3)nn12     15.8
1  CCOC(=O)c1ccccc1NC(=O)CSc1nc2ccccc2c(=O)[nH]1     10.1
2  O=C(NCc1ccccc1)c1ccc(S(=O)(=O)Nc2cccc(C(F)(F)F)c2)cc1     25.2
3  COCCNC(=O)c1ccc(S(=O)(=O)c2ccc(Cl)cc2)c(NC(C)=O)c1     14.7

For the next question, use this compound.
Documented inhibition of CC(=O)c1c(OCC(=O)N(C)C2CCCCC2)ccc2c(C)cc(=O)oc12 : 4.3

###

Here, each record is paired with measured inhibition data.
molecular target: Protein Mdm4 (Homo sapiens) + E3 ubiquitin-protein ligase Mdm2 (Homo sapiens) (UniProt O15151+Q00987); test: inhibitors of human Mdm2-MdmX association, primary screen, cell-based, luminescence, split luciferase, SaOS-2, uHTS (AID 485346); settings: SaOS-2 split-luciferase Mdm2/MdmX complementation, at 8 µM, stronger effect = higher value
The whole screen tested about 330,000 compounds, of which about 10,000 (3%) were called active. The sample as a whole holds a higher share of actives than the screen did.
# value in %; strip the unit string

Sample answers from the record:
>>> df
                                   compound  reading
0        COc1ccccc1/C=N/Nc1nc(C)c(C(C)=O)s1    -49.5
1  O=C(CN1CCN(C2CCS(=O)(=O)C2)CC1)N1N=C(c2ccc(Cl)cc2)CC1c1ccco1 (configuration not stated)     26.2
2         O=C(COC(=O)Cc1ccccc1F)NCCc1ccccc1     6.62
3  Cc1ccc(C)c(N2CCN(C(=O)CCc3nc(-c4cccc(C(F)(F)F)c4)no3)CC2)c1    -17.8
4           COC(=O)c1ccc(Nc2ncnc3sccc23)cc1     1.96

Documented inhibition of CCC(C)Cn1c(O)cc2nn(-c3nc4ccccc4s3)c(=O)c-2c1C (configuration not stated) : 39.4

Documented inhibition of Cc1cc(C(=O)COC(=O)CNC(=O)c2ccc(F)cc2)c(C)n1Cc1ccco1 : 56.9

Documented inhibition of O=C(O)c1ccccc1CSc1nc2ccccc2s1 : -21.2

Documented inhibition of COc1cccc(/C=N/Nc2cc(C)nc(-c3ccccc3O)n2)c1O : 93.4

Documented inhibition of Clc1ccc(C[n+]2cc(-c3ccc(Cl)cc3)n3c2CCC3)cc1 : 31.8

Documented inhibition of Cc1nc(Cl)cc(N/N=C/c2ccccc2)n1 : -5.97

Documented inhibition of CCOc1ccccc1Nc1ccc2nonc2c1[N+](=O)[O-] : 9.13

Documented inhibition of COc1ccc(/C=N/Nc2cc(N3CCOCC3)nc(C)n2)c(OC)c1 : 19.1

Documented inhibition of COc1ccccc1/C=N\Nc1cc(C)nc(-n2nc(C)cc2C)n1 : 57.4

Documented inhibition of COCCn1c(C)cc(C(=O)COC(=O)CNC(=O)c2ccco2)c1C : 3.33

Documented inhibition of O=C(C1CC(=O)N(C2CCCC2)C1)N1CCN(c2cccc(C(F)(F)F)c2)CC1 (configuration not stated) : 4.03

###

target: Protein Mdm4 (Homo sapiens) + E3 ubiquitin-protein ligase Mdm2 (Homo sapiens) (UniProt O15151+Q00987); assay: inhibitors of human Mdm2-MdmX association, primary screen, cell-based, luminescence, split luciferase, SaOS-2, uHTS (AID 485346); conditions: SaOS-2 split-luciferase Mdm2/MdmX complementation, at 8 µM, stronger effect = higher value
Screen size: about 330,000 compounds; about 10,000 (3%) were called active. Only a selection was taken, and actives are over-represented in it overall.
readout label: inhibition (%)
# value in %; strip the unit string

Sample answers from the record:
>>> print(df.to_string())
                                   molecule  readout_label  reading
0  CC(C)(C)[C@H]1C=C(C(=O)NCc2ccccc2)O[C@@H](OCc2ccc(CO)cc2)C1     inhibition     29.5
1  Cc1ccc(-c2csc(NC(=O)Cn3[nH]c(=O)c4ccccc4c3=O)n2)cc1     inhibition     31.2
2  COc1cc(CC(=O)Nc2nc(-c3ccc(F)c(F)c3)cs2)cc(OC)c1OC     inhibition     28.8
3         CN(CCC#N)c1ncnc2scc(-c3ccccc3)c12     inhibition     21.2
4        Cc1ccc(C(=O)Nc2nnc(-c3ccncc3)s2)o1     inhibition    -5.65

Documented inhibition of COc1ccc(-c2cc(=O)oc3cc(OC(C)C(=O)NCC4CCC(C(=O)O)CC4)ccc23)cc1 (configuration not stated) : -48.8

Documented inhibition of Cc1cc(-c2csc(N)n2)c(C)n1-c1ccccc1 : 9.07
